Hey, just so you know, these numbers are from the array DNA melting data of Ke et al. (doi:10.1101/2024.01.08.574731).

# Method description: folding enthalpy; higher = less favourable; fluorescence melt of hairpins on a sequencing array, two-state fit
# Measurement conditions: sodium 0.088 M
The following sequences are shown together with reported folding enthalpy values.
Record the value in kcal/mol, omitting the unit from your answer.

Would you please look over these solved cases?
GATGATCCGAAAGGAATC (((..(((....))))))    -14.3
ACCAAGAAATTGGT (((((....)))))    -13.7
GGCTTGGGAAACCAGGCC (((.(((....))).)))    -49

Looking for the measured folding enthalpy of GCAGAGCGAAAGCTCAGC ((.((((....)))).)) , can you help?
-20.4

Would you mind doing GCCACTTCGAAAGAAGGC (((..(((....)))))) as well?
-13

Please give the result for GATCTATGGCTAGATC ((((((....)))))) too.
-30.1

Next up: GGTCGCCGAAAGGCACC (((.(((....))))))
-12.6

Now this one: GAATCGGGAAACTGATTC (((((.(....).)))))
-38.9

* * *

Form field: folding enthalpy (one value per entry).
# Method description: folding enthalpy; higher = less favourable; fluorescence melt of hairpins on a sequencing array, two-state fit
# Measurement conditions: sodium 0.088 M
Record the value in kcal/mol, omitting the unit from your answer.

Look over these answered cases.
GCCTTCGGAAACGGAGGC ((((.((....)).))))    -40.4
GTTCTCACGAAAGTGAAC (((..(((....))))))    -10.9
GTATGAGGAAACTTATAC ((((.((....)).))))    -25.7
ATAGTGAAAACTAT (((((....)))))    -12.8
GATCTCTACAGAGATC ((((((....))))))    -45.2

Kindly review the next sequence as well.
Name the recorded folding enthalpy for CGACGCGGAAACGCTCG (((.(((....)))))) .
-21.8

* * *

# Method description: folding enthalpy; higher = less favourable; fluorescence melt of hairpins on a sequencing array, two-state fit
# Measurement conditions: sodium 0.088 M
Outcome: yes for folding enthalpy of at least -30 kcal/mol; no for anything lower.

Past entries and their recorded results:
GGTTTACGAAAGTAGACC (((.(((....))).)))    no
GTACAGCGAAAGCTATAC (((.(((....))).)))    yes
GCGCCCCGAAAGGGCCGC (((.(((....))).)))    yes
GGCTCGGGAAACCAAGCC ((((.((....)).))))    no

Determine whether measured folding enthalpy meets or exceeds -30 kcal/mol for GCAGGCGAAAGCCTATGC ((((((....)))..)))
yes

Moving on to CGGGCGGAAACGCGGCCG ((((((....)))..)))
no

Thanks! And GCCATGGGAAACCACGGC (((.(((....))).))) ?
no

Now the sequence GGGCGCGAAAGCGTACCC ((((((....)))..)))
yes

What about GCCATGCGAAAGCGAGGC (((..((....))..))) ?
yes

Now try GGTCGCGAAAGCGTGACC ((((((....)))..))) .
yes

Item: GTGCCTACGAAAGTACAC (((..(((....))))))
yes

Next sequence: GGATCACCGAAAGGTTCC (((..(((....))))))
yes

Note, next up: CGCAACCGGAAACGGGCG (((..(((....))))))
yes

Now this one: GATCCGAGTTCGGATC ((((((....))))))
no

Likewise for GCGCTTGGAAACAAGCAC (.(((((....))))).) ?
yes

Note, next up: GCATCGCGAAAGCGTAGC ((..(((....)))..))
yes

* * *

# Method description: folding enthalpy; higher = less favourable; fluorescence melt of hairpins on a sequencing array, two-state fit
# Measurement conditions: sodium 0.088 M
Metric name: folding enthalpy (kcal/mol)
Return type: number; implicit unit kcal/mol.

GGCGGTACGAAAGTAGCC (((..(((....))))))    -18.8
GCGAACGAAAGTTGCCGC ((((((....)))..)))    -16.6

Consider now this further sequence.
Entry GAAAGCGAAAGCTGGTTC ((((((....)))..))) : reported folding enthalpy = ?
-9.59

* * *

# Method description: folding enthalpy; higher = less favourable; fluorescence melt of hairpins on a sequencing array, two-state fit
# Measurement conditions: sodium 0.088 M
Label t when folding enthalpy is at or above -30 kcal/mol; otherwise label f.

Please review the following examples before continuing.
GGCTCCGGAAACAGAGCC (((((.(....).)))))    f
GCAAGGCGAAAGCCTCGC ((.((((....)))).))    t
GGCTAGCGAAAGCTGCC (((.(((....))))))    t

Is folding enthalpy for CTCGTGAAAACGAG (((((....))))) at or above -30 kcal/mol?
t

And what about the sequence GACCAGGGAAACCTGGTC (((((((....))))))) ?
f

Entry to check: GATCTTTCAAAAGATC ((((((....))))))
f

Same read-out for CGGCTCGGAAACGACCG (((.(((....)))))) ?
f

Ok, now CTCTGGAAACAGAG (((((....)))))
t

Another: GCGAAATCGAAAGATCGC (((..(((....))))))
t

Now this one: GAAAACGGAAACGCTTTC ((((.((....)).))))
f

Now give it for GATCAGTATCTGATC ((((((...)))))) too.
f

Also GACGTGGGAAACCACACC (..((((....))))..) , if possible.
t

* * *

# Method description: folding enthalpy; higher = less favourable; fluorescence melt of hairpins on a sequencing array, two-state fit
# Measurement conditions: sodium 0.088 M
Metric name: folding enthalpy
The reply should read as a number followed by its unit.

GAGCAGCGAAAGCTACTC (((.(((....))).)))    -22.3 kcal/mol
GCTGAGCGAAAGCATAGC (((..((....))..)))    -18.9 kcal/mol
GGACTCTCGAAAGAGTCC (((..(((....))))))    -42.7 kcal/mol

Look at this sequence and give its reported folding enthalpy. GAGAACGAAAGTTGCTC ((((((....))).)))
-15.7 kcal/mol

Then what about the sequence GCTTCGCGAAAGCGTCGC ((..(((....)))..)) ?
-15.6 kcal/mol

Quick one: GCACACGAAAGTGCTTGC ((((((....)))..)))
-20.8 kcal/mol

Same question for TGGAAGAAATTCCA (((((....))))) please.
-12.4 kcal/mol

Okay, and GATCCCCCTGGGGATC ((((((....)))))) ?
-36.1 kcal/mol

// query: GAGCGCGAAAGCGCCTC ((((((....))).)))
-7.59 kcal/mol

Follow-up item: GCATTGCGAAAGCCCTGC (((..((....))..)))
-14.6 kcal/mol

Request: GTGTTCACGAAAGTGCAC (((..(((....))))))
-20.7 kcal/mol

Now the sequence GTGCTACCGAAAGGTCAC (((..(((....))))))
-15.5 kcal/mol

* * *

# Method description: folding enthalpy; higher = less favourable; fluorescence melt of hairpins on a sequencing array, two-state fit
# Measurement conditions: sodium 0.088 M
# cutoff -100 kJ/mol applies to folding enthalpy; >= gives 1 (yes), < gives 0 (no)

The examples below pair each entry with its known result.
GGGAGACGAAAGTCACCC (((.(((....))).)))    0 (no)
GCTGTTGGAAACGACAGC (((((.(....).)))))    0 (no)
GACAAAGGAAACTTCGTC (((.(((....))).)))    1 (yes)
GGATGACGAAAGTCCTCC (((.(((....))).)))    0 (no)
GACTTGGGAAACTAGGTC (((.(.(....).).)))    1 (yes)
GTAATAGGAAACTATTGC (.(((((....))))).)    1 (yes)

Does GAATACCGAAAGGTGTTC (((.(((....))).))) have a reported folding enthalpy of at least -100 kJ/mol?
0 (no)

Please answer likewise for GGAAACGAAAGTTTATCC ((((((....)))..)))
1 (yes)

Next sequence: GTGGCTACGAAAGTACAC (((..(((....))))))
1 (yes)

Follow-up item: GTTGGGGCGAAAGCCAAC (((..(((....))))))
1 (yes)

Same read-out for GTAGTATCGAAAGATTAC (((..(((....)))))) ?
1 (yes)

Here is the next sequence: GCTACGCGAAAGCTAAGC (((..((....))..)))
1 (yes)
